- Tested on: Plasmodium falciparum
- TEST: Antiplasmodial activity against blood stage chloroquine-sensitive Plasmodium falciparum 3D7 infected in human erythrocyte
- Type: functional, organism-based
- TEST_SETTINGS: 3D7, Erythrocyte

{"columns": ["STRUCTURE_AS_SMILES", "IC50 (µM)"],
 "data": [
  ["COc1cc(NCCCCN)c2nc3cc(Cl)ccc3cc2c1", 5.64]
]}
